Exercise: state measured pKd for each of the binders provided.
studyTarget: T1, EsCas13d, nuclease-dead (Eubacterium siraeum, UniProt B0MS50, R295A;H300A;R849A;H854A)
T1 sequence: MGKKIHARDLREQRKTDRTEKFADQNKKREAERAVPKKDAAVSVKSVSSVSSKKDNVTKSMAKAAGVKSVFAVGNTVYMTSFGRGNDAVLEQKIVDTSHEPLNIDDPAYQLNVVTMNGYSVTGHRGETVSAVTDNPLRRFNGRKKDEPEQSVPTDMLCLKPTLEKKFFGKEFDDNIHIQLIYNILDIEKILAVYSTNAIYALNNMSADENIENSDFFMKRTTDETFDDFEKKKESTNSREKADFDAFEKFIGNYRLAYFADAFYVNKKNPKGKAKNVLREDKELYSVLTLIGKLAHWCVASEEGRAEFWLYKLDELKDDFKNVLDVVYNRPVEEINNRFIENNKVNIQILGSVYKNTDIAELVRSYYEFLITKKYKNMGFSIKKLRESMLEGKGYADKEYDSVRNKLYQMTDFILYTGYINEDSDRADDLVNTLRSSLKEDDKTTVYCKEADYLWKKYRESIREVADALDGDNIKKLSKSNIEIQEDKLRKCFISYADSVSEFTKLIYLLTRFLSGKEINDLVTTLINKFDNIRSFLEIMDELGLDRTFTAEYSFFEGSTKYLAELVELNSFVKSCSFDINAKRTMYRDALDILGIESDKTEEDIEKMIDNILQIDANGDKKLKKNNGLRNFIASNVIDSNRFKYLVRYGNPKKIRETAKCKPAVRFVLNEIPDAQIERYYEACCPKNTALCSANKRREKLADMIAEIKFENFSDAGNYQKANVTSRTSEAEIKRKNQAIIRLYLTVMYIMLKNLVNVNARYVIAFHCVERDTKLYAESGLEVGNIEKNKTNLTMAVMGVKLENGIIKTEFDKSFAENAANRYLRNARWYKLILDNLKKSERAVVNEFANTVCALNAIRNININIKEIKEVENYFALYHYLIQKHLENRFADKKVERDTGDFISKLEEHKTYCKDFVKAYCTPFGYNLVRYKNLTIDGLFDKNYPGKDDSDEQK
methodDescription: crRNA (strand 1, pre-loaded); Mg2+; 40 mM Tris-HCl pH 7.5, 150 mM NaCl, 6 mM MgCl2, 1 mM DTT, 0.1% Tween-20, 0.2 mg/ml BSA; 25 C; 10 min per concentration, then washed
studyConditions: tags: His6-TwinStrep-SUMO cleaved; N-terminal SNAP kept (SNAP-Surface 488); label: 3' end held by stalled T7 RNA polymerase
The scale used: pKd is minus the common logarithm of the concentration in molar units.

The measured pKd associated with target 1 MT 5'PFS GUA 3'PFS CCU (mixed) RNA 1: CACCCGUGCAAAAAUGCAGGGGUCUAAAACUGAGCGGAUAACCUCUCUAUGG RNA 2: GGGAAUGGAUCCACAUCUACGAAUUCGUACCAUAGAGAGGUUAUCCGCUCACCUAGAUCGGAAGAGCACACGU reads 8.14

The measured pKd associated with target 2 MT 5'PFS UUU 3'PFS CGC (mixed) RNA 1: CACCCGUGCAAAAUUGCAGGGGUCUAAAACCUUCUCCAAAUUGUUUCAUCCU RNA 2: GGGAAUGGAUCCACAUCUACGAAUUCUUUAGGAUGAAACAAUUUGGAGAAGCGCAGAUCGGAAGAGCACACGU reads 8.19
